Attribution: ChEMBL document CHEMBL5291721

Target: Equilibrative nucleoside transporter 1 (Homo sapiens); also: assay procedure not described here
Sequence (Q99808 whole entry): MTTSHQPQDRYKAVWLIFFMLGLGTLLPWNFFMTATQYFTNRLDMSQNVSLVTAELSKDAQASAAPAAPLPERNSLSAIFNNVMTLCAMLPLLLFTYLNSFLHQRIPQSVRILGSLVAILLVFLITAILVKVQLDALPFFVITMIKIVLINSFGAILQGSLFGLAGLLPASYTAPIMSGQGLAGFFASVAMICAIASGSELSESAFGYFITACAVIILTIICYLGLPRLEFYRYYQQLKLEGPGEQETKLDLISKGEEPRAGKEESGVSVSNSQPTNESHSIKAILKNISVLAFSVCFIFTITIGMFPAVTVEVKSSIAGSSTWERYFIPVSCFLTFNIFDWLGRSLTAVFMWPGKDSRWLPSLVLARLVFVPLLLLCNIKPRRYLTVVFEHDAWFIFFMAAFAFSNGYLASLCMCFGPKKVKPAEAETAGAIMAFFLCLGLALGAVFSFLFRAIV
readout kind: AC50

// known answers, use as guide
Data request: For the compound "CC1(C)S[C@@H]2[C@H](NC(=O)[C@H](N)c3ccccc3)C(=O)N2[C@H]1C(=O)OCOC(=O)[C@@H]1N2C(=O)C[C@H]2S(=O)(=O)C1(C)C" , give its measured AC50 value.
Data returned: > 30 µM

Data request: For the compound "CCCN(CCC)C(=O)Cc1c(-c2ccc(Cl)cc2)nc2ccc(Cl)cn12" , give its measured AC50 value.
Data returned: > 30 µM

Data request: For the compound "CCOC(=O)C1=C[C@]2(CC)CCCN3CCc4c(n1c1ccccc41)[C@@H]32" , give its measured AC50 value.
Data returned: > 30 µM

Data request: For the compound CC(C(=O)O)c1ccc2c(c1)[nH]c1ccc(Cl)cc12 (stereo not given) , give its measured AC50 value.
Data returned: > 30 µM

Data request: For the compound "O=C1CN(/N=C/c2ccc(-c3ccc([N+](=O)[O-])cc3)o2)C(O)=N1" , give its measured AC50 value.
Data returned: > 10 µM

Data request: For the compound "O=C(O)c1ccccc1Nc1cc(Cl)ccc1C(=O)O" , give its measured AC50 value.
Data returned: > 30 µM

Data request: For the compound CC(=O)OCC(=O)[C@@]1(O)[C@H](C)C[C@H]2[C@@H]3CCC4=CC(=O)C=C[C@]4(C)[C@@]3(F)[C@@H](O)C[C@@]21C [DEXAMETHASONE ACETATE] , give its measured AC50 value.
Data returned: > 30 µM

Data request: For the compound "C[C@@H](Oc1cc(-c2cnn(C3CCNCC3)c2)cnc1N)c1c(Cl)ccc(F)c1Cl" , give its measured AC50 value.
Data returned: > 30 µM

Data request: For the compound CCC1(c2ccccc2)CCC(=O)NC1=O (stereo not given) [GLUTETHIMIDE] , give its measured AC50 value.
Data returned: > 10 µM

Lab note: next compound to report on.
Data request: For the compound CCN(CC)C(=O)Nc1ccc(OCC(O)CNC(C)(C)C)c(C(C)=O)c1 (stereo not given) , give its measured AC50 value.
Data returned: > 30 µM

----------
Reported values of AC50 for individual entries
Target: Prostaglandin G/H synthase 1 (Rattus norvegicus); also: assay procedure not described here
Sequence (Q63921 whole entry): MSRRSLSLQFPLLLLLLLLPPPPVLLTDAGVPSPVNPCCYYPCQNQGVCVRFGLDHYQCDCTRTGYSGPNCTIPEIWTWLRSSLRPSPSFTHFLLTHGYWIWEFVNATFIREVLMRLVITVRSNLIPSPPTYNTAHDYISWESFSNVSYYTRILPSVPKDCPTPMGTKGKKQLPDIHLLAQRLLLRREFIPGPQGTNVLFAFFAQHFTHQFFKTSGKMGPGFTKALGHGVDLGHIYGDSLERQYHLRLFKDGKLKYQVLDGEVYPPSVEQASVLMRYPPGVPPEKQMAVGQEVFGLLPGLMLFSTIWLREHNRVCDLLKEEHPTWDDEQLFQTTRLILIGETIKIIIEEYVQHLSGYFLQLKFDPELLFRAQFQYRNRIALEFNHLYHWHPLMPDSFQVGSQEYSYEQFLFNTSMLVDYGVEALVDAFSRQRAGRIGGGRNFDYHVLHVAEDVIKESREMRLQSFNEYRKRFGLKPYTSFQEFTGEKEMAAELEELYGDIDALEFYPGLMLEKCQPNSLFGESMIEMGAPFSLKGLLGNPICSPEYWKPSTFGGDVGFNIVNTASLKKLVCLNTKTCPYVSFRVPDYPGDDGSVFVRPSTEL
Assay type: functional

// known answers, use as guide
Data request: For the compound "C=CCNc1nc(NCC=C)nc(N2CCN(C(c3ccc(F)cc3)c3ccc(F)cc3)CC2)n1" , give its measured AC50 value.
Data returned: > 30 µM

Data request: For the compound "CN(C(=O)c1c(O)c2ccccc2n(C)c1=O)c1ccccc1" , give its measured AC50 value.
Data returned: > 30 µM

More entries:
Data request: For the compound CCOC(=O)C1=C(C)NC(C)=C(C(=O)OC)C1c1cccc([N+](=O)[O-])c1 (stereo not drawn) , give its measured AC50 value.
Data returned: > 30 µM

----------
Target: Gamma-aminobutyric acid receptor subunit alpha-1/alpha-2/beta-2/gamma-2 (Homo sapiens, UniProt P14867+P18507+P47869+P47870); also: assay procedure not described here
Sequence (P14867 whole entry): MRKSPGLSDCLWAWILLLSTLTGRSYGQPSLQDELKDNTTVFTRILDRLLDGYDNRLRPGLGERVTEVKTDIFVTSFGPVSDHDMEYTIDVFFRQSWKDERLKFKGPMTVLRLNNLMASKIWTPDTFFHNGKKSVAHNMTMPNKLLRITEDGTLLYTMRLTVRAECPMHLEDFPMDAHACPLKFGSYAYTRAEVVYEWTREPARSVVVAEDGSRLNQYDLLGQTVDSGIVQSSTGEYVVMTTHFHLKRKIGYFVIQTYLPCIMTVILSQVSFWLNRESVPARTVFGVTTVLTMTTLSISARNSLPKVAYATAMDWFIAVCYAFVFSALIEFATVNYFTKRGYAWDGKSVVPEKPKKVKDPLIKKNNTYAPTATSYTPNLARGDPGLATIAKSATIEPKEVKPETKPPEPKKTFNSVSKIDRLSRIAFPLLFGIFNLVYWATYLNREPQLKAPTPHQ
Sequence (P47870 whole entry): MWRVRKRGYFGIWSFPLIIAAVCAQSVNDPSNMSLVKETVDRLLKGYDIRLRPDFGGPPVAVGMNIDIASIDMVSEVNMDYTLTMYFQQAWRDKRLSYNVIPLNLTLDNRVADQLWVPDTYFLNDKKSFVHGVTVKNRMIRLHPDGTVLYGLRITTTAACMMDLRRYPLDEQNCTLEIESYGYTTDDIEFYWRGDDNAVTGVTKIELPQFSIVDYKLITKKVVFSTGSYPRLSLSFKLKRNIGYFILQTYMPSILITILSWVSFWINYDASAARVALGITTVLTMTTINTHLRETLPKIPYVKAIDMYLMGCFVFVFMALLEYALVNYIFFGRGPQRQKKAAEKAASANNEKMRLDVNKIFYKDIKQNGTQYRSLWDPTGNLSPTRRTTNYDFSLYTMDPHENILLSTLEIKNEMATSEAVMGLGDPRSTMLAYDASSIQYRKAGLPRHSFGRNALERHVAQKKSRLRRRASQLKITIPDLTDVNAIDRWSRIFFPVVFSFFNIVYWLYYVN
Sequence (P18507 whole entry): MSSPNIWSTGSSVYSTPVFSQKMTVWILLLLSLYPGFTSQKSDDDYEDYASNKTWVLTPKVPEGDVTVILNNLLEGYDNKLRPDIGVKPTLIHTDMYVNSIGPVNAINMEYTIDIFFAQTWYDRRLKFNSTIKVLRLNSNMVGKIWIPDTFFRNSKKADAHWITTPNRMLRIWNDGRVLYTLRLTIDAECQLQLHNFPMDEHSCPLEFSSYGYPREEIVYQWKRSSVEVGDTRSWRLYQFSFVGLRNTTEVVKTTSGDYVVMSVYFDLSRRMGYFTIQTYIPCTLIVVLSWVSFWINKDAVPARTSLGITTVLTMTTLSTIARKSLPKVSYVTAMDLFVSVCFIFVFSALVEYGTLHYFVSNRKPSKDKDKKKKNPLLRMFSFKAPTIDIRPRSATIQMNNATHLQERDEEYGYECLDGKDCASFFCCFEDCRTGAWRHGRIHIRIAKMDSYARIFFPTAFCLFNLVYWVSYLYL
Sequence (P47869 whole entry): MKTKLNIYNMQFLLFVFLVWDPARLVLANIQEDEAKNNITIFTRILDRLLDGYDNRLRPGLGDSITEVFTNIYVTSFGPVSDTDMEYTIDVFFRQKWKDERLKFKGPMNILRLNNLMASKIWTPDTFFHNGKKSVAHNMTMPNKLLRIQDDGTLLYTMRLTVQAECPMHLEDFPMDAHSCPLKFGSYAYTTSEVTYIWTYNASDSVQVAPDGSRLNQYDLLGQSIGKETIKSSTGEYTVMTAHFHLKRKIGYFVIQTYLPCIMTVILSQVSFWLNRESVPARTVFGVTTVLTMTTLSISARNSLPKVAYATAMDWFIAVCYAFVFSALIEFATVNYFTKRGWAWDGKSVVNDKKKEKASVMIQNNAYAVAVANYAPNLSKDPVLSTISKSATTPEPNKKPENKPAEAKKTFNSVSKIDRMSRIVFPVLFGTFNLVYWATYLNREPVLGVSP
Assay type: functional, cell-based
Reported values of AC50 for individual entries

// known answers, use as guide
Data request: For the compound C[C@H](CCC(=O)O)[C@H]1CC[C@H]2[C@@H]3[C@@H](O)C[C@@H]4C[C@H](O)CC[C@]4(C)[C@H]3CC[C@]12C [URSODIOL] , give its measured AC50 value.
Data returned: > 30 µM

Data request: For the compound C[C@@H](Oc1cc(-c2cnn(C3CCNCC3)c2)cnc1N)c1c(Cl)ccc(F)c1Cl [CRIZOTINIB] , give its measured AC50 value.
Data returned: 17 µM

Lab note: next compound to report on.
Data request: For the compound C/N=C(\NC)NCc1ccccc1 [BETHANIDINE] , give its measured AC50 value.
Data returned: > 30 µM

----------
Target: Alpha-2A adrenergic receptor (Homo sapiens); also: assay procedure not described here
Sequence (P08913 whole entry): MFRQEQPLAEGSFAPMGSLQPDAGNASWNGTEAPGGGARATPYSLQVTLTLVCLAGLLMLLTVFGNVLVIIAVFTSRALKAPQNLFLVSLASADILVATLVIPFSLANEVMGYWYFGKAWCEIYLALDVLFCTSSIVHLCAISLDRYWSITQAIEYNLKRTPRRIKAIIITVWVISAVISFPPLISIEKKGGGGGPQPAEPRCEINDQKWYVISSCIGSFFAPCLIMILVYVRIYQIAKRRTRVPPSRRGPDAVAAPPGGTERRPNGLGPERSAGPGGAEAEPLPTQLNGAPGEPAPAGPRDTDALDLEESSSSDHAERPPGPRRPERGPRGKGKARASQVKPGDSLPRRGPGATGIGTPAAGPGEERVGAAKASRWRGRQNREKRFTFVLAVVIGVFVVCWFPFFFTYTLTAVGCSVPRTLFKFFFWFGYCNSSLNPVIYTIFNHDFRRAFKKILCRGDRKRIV
Type: functional, cell-based
readout kind: AC50

// known answers, use as guide
Data request: For the molecule "CCN(CC)CCNC(=O)c1c(C)[nH]c(/C=C2\C(=O)Nc3ccc(F)cc32)c1C" , give its measured AC50 value.
Data returned: 24 µM

Data request: For the molecule CNC1=Nc2ccc(Cl)cc2C(c2ccccc2)=[N+]([O-])C1 [CHLORDIAZEPOXIDE] , give its measured AC50 value.
Data returned: > 10 µM

Data request: For the molecule "C[C@]12CCC(=O)C(O)=C1CC[C@@H]1[C@@H]2CC[C@]2(C)C(=O)CC[C@@H]12" , give its measured AC50 value.
Data returned: > 30 µM

Data request: For the molecule CCCCCC(=O)O[C@]1(C(C)=O)CC[C@H]2[C@@H]3CCC4=CC(=O)CC[C@]4(C)[C@H]3CC[C@@]21C [HYDROXYPROGESTERONE CAPROATE] , give its measured AC50 value.
Data returned: > 30 µM

Data request: For the molecule "O=C1CN=C(c2ccccc2)c2cc([N+](=O)[O-])ccc2N1" , give its measured AC50 value.
Data returned: > 10 µM

Data request: For the molecule "CCN1CCN(Cc2ccc(Nc3ncc(F)c(-c4cc(F)c5nc(C)n(C(C)C)c5c4)n3)nc2)CC1" , give its measured AC50 value.
Data returned: > 30 µM

Data request: For the molecule "C=C[C@@]1(C)CC(=O)[C@]2(O)[C@@]3(C)[C@@H](O)CCC(C)(C)[C@@H]3[C@H](O)[C@H](OC(C)=O)[C@@]2(C)O1" , give its measured AC50 value.
Data returned: 4.3 µM

Data request: For the molecule C#CCOc1ccc(N)cc1C(=O)NCCCC [PARSALMIDE] , give its measured AC50 value.
Data returned: > 30 µM

Data request: For the molecule "CCCC(CCC)C(=O)O" , give its measured AC50 value.
Data returned: > 10 µM

Data request: For the molecule COc1cc2nc(N3CCN(C(=O)C4CCCO4)CC3)nc(N)c2cc1OC (stereo not drawn) , give its measured AC50 value.
Data returned: > 30 µM

More entries:
Data request: For the molecule CC(CCc1ccc(O)cc1)NCCc1ccc(O)c(O)c1 (stereo not drawn) , give its measured AC50 value.
Data returned: > 30 µM

Data request: For the molecule CCC(COC(=O)c1cc(OC)c(OC)c(OC)c1)(c1ccccc1)N(C)C (stereo not drawn) , give its measured AC50 value.
Data returned: > 30 µM

Data request: For the molecule CC1OC2(CS1)CN1CCC2CC1 (stereo not drawn) , give its measured AC50 value.
Data returned: > 10 µM

----------
Target: Alpha-1A adrenergic receptor (Homo sapiens, UniProt P35348); also: assay procedure not described here
Sequence (P35348 whole entry): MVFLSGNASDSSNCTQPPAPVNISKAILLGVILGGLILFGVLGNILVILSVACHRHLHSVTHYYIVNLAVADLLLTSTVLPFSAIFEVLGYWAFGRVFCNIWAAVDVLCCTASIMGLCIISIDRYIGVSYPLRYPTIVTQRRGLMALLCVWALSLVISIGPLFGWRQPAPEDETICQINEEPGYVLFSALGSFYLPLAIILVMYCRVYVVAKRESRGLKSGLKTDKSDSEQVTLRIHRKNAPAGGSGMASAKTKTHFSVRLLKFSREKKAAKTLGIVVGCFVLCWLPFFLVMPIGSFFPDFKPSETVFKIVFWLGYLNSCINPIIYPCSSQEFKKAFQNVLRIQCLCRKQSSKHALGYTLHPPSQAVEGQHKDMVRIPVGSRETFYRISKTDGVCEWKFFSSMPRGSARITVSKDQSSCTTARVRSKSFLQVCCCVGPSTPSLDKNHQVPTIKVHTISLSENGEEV
Type: functional, cell-based
readout kind: AC50

Data request: For the compound C[C@H](Cc1cc2c(c(C(N)=O)c1)N(CCCO)CC2)NCCOc1ccccc1OCC(F)(F)F [SILODOSIN] , give its measured AC50 value.
Data returned: 0.0029 µM

Data request: For the compound CCC(C)C1(CC)C(=O)NC(=O)NC1=O (centres undefined) [BUTABARBITAL] , give its measured AC50 value.
Data returned: > 30 µM

Data request: For the compound "CC(=O)SC[C@@H](C)C(=O)N1CCC[C@H]1C(=O)N[C@@H](Cc1ccccc1)C(=O)O" , give its measured AC50 value.
Data returned: > 30 µM

Data request: For the compound CC(C(=O)O)c1ccc(CC2CCCC2=O)cc1 (centres undefined) [LOXOPROFEN] , give its measured AC50 value.
Data returned: > 30 µM

----------
Target: Muscarinic acetylcholine receptor M2 (Homo sapiens); also: assay procedure not described here
Sequence (P08172 whole entry): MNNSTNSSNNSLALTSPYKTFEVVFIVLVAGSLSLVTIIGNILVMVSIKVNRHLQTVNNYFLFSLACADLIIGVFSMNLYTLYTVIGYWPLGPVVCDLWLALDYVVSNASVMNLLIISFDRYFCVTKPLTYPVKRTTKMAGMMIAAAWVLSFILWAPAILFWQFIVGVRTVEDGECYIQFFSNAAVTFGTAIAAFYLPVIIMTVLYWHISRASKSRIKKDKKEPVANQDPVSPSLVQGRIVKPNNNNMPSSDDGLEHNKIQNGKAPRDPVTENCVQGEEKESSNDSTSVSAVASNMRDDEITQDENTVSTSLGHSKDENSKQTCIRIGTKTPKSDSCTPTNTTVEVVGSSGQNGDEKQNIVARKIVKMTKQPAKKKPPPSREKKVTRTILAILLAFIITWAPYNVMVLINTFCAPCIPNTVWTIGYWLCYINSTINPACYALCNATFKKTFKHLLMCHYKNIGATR
Assay type: functional, cell-based
Reported values of AC50 for individual entries

// known answers, use as guide
Data request: Under Muscarinic acetylcholine receptor M2 (Homo sapiens): report AC50 of "C[C@@H](Oc1cc(-c2cnn(C3CCNCC3)c2)cnc1N)c1c(Cl)ccc(F)c1Cl" .
Data returned: > 10 µM

Data request: Under Muscarinic acetylcholine receptor M2 (Homo sapiens): report AC50 of CCN(CC)C(=O)Nc1ccc(OCC(O)CNC(C)(C)C)c(C(C)=O)c1 (centres undefined) .
Data returned: > 30 µM

Data request: Under Muscarinic acetylcholine receptor M2 (Homo sapiens): report AC50 of CCN(CC)CCNC(=O)c1cc(S(C)(=O)=O)ccc1OC [TIAPRIDE] .
Data returned: > 30 µM

Data request: Under Muscarinic acetylcholine receptor M2 (Homo sapiens): report AC50 of "CCCCCCCCCCCCCCCCCCCCCC(=O)Nc1ccn([C@@H]2O[C@H](CO)[C@@H](O)[C@@H]2O)c(=O)n1" .
Data returned: > 30 µM

Data request: Under Muscarinic acetylcholine receptor M2 (Homo sapiens): report AC50 of COc1cc2nc(N3CCN(C(=O)C4CCCO4)CC3)nc(N)c2cc1OC (centres undefined) .
Data returned: > 10 µM

More entries:
Data request: Under Muscarinic acetylcholine receptor M2 (Homo sapiens): report AC50 of "CN1C[C@H](C(=O)N[C@]2(C)O[C@@]3(O)[C@@H]4CCCN4C(=O)[C@H](Cc4ccccc4)N3C2=O)C=C2c3cccc4[nH]cc(c34)C[C@H]21" .
Data returned: > 30 µM

Data request: Under Muscarinic acetylcholine receptor M2 (Homo sapiens): report AC50 of OC1(c2ccc(Cl)cc2)c2ccccc2C2=NCCN21 (centres undefined) .
Data returned: > 30 µM

Data request: Under Muscarinic acetylcholine receptor M2 (Homo sapiens): report AC50 of CCCN[C@H]1CCc2nc(N)sc2C1 [PRAMIPEXOLE] .
Data returned: > 10 µM

Data request: Under Muscarinic acetylcholine receptor M2 (Homo sapiens): report AC50 of COc1cc2ncnc(Nc3ccc(F)c(Cl)c3)c2cc1NC(=O)/C=C/CN1CCCCC1 [DACOMITINIB ANHYDROUS] .
Data returned: > 10 µM

Data request: Under Muscarinic acetylcholine receptor M2 (Homo sapiens): report AC50 of "CN(C)CCc1c[nH]c2ccc(Cn3cncn3)cc12" .
Data returned: > 30 µM

Data request: Under Muscarinic acetylcholine receptor M2 (Homo sapiens): report AC50 of CCCCCC(=O)O[C@]1(C(C)=O)CC[C@H]2[C@@H]3CCC4=CC(=O)CC[C@]4(C)[C@H]3CC[C@@]21C [HYDROXYPROGESTERONE CAPROATE] .
Data returned: > 30 µM

Data request: Under Muscarinic acetylcholine receptor M2 (Homo sapiens): report AC50 of "C[N@+]1(CCF)[C@@H]2CC[C@H]1C[C@@H](OC(=O)C(O)(c1ccccc1)c1ccccc1)C2" .
Data returned: 0.0145 µM
